target: human mGlu4 receptor (Homo sapiens, UniProt Q14833); construct: expressed in transfected cells; host or cells: HEK-293 (monoclonal, stably transfected); experiment: Ca2+ mobilization in vitro assay on recombinant human mGlu4 expressed in HEK293 cells; assay type: cell-based; settings: HEK-293 cells stably expressing human mGlu4; L-AP4 added at EC20; Fluo-4 fluorescence; read-out: EC50 (uM) mGlu4 PAM
Sequence (Q14833 33-912): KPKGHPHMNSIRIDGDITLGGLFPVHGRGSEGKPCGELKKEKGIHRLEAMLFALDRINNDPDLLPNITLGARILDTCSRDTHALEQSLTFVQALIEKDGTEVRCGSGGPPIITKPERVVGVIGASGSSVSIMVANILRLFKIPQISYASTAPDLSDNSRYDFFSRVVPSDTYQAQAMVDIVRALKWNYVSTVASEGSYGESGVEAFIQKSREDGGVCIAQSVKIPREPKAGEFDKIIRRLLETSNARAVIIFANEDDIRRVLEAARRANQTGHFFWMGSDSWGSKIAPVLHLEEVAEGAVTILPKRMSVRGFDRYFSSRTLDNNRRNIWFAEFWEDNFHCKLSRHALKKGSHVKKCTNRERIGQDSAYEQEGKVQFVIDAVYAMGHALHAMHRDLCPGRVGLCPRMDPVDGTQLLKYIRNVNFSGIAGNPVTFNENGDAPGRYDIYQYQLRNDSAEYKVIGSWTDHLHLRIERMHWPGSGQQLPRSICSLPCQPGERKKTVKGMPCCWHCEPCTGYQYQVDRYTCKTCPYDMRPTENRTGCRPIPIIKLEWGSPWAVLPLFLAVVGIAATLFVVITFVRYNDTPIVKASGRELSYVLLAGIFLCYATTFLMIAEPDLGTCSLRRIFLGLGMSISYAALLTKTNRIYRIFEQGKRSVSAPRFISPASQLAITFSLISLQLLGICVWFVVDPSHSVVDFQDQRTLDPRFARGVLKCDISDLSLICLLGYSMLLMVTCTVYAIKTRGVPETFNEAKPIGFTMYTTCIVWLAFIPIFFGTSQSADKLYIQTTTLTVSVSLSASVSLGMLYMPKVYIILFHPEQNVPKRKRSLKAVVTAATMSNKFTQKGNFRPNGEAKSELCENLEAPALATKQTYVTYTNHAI
EXPERIMENTAL ENDPOINT: EC50 (µM)

Past entries and their recorded results:
{"columns": ["MOL SMILES", "EC50 [µM]"],
 "data": [
  ["O=C1N(c2c(F)cc(C#Cc3ccccc3)cc2F)c2ncc(-c3cc[nH]n3)n2C12CC2", 0.121],
  ["O=C1N(c2c(F)cc(C#Cc3cccnc3)cc2F)c2ncc(-c3ccccn3)n2C12CC2", 0.283],
  ["O=C1N(c2c(F)cc(C#Cc3ccccc3)cc2F)c2ncc(CO)n2C12CC2", 0.294],
  ["Cn1ccc(-c2cnc3n2C2(CC2)C(=O)N3c2c(F)cc(-c3ccc(OC(F)F)cc3)cc2F)n1", 0.621],
  ["Cn1cnc(-c2cnc3n2C2(CC2)C(=O)N3c2c(F)cc(C#Cc3ccccc3)cc2F)c1", 0.12],
  ["Cn1ccc(-c2cnc3n2C(C)(C)C(=O)N3c2c(F)cc(C#Cc3ccccc3)cc2Cl)n1", 0.252]
]}

(I) O=C(Nc1cc(F)c(N2C(=O)C3(CC3)n3c(-c4ccccn4)cnc32)c(F)c1)c1ccccn1
(II) Cn1ccc(-c2cnc3n2C2(CC2)C(=O)N3c2c(F)cc(-c3ccc(C(C)(F)F)cc3)cc2F)n1
IN: Which record would sort first by descending EC50, I or II ? Answer by stating the label of the chosen item.
OUT: II
(II: 0.1 µM, I: 0.059 µM)

###

target: human mGlu4 receptor (Homo sapiens, UniProt Q14833); construct: expressed in transfected cells; host or cells: HEK-293 (monoclonal, stably transfected); assay: Ca2+ mobilization in vitro assay on recombinant human mGlu4 expressed in HEK293 cells; assay type: cell-based; conditions: HEK-293 cells stably expressing human mGlu4; L-AP4 added at EC20; Fluo-4 fluorescence; read-out: EC50 (uM) mGlu4 PAM
EXPERIMENTAL ENDPOINT: EC50 (µM)

{"columns": ["COMPOUND", "EC50, µM"],
 "data": [
  ["CC1(C)C(=O)N(c2c(F)cc(C#Cc3ccccc3)cc2Cl)c2ncc(I)n21", 0.371]
]}

(P) O=C(Nc1cc(F)c(N2C(=O)C3(CC3)n3ccnc32)c(F)c1)c1ccccn1
(Q) CC1(C)C(=O)N(c2c(F)cc(C#Cc3ccccc3)cc2F)c2ncc(-c3ccccc3)n21
IN: I'm curious, which of these has a smaller EC50 number: P or Q ? Answer by stating the label of the chosen item.
OUT: Q

(P) O=C1N(c2c(F)cc(C#Cc3ccccc3)cc2F)c2ncc(-c3ccncc3)n2C12CC2
(Q) O=C1N(c2c(F)cc(C#Cc3ccccc3)cc2F)c2ncc(-c3ccccn3)n2C12CC2
IN: Which record would sort first by descending EC50, P or Q ? Answer by stating the label of the chosen item.
OUT: P
(P: 0.156 µM, Q: 0.076 µM)

(I) CC1(C)C(=O)N(c2c(F)cc(C#Cc3ccccc3)cc2Cl)c2nccn21
(II) O=C(Nc1cc(F)c(N2C(=O)C3(CC3)n3c(-c4cc[nH]n4)cnc32)c(F)c1)c1ccccn1
(III) Cc1cnc2n1C1(CC1)C(=O)N2c1c(F)cc(C#Cc2cccnc2)cc1F
(IV) O=C(Nc1cc(F)c(N2C(=O)C3(CC3)n3c(-c4ccncn4)cnc32)c(F)c1)c1ccccn1
(V) O=C1N(c2c(F)cc(C#Cc3ccccc3)cc2F)c2ncc(I)n2C12CC2
IN: # sort list by recorded EC50, greatest to least Return value: ordered labels per request.
OUT: III, I, V, IV, II

###

target: human mGlu4 receptor (Homo sapiens); construct: expressed in transfected cells; host or cells: HEK-293 (monoclonal, stably transfected); assay: Ca2+ mobilization in vitro assay on recombinant human mGlu4 expressed in HEK293 cells; assay type: cell-based; conditions: HEK-293 cells stably expressing human mGlu4; L-AP4 added at EC20; Fluo-4 fluorescence; read-out: EC50 (uM) mGlu4 PAM
EXPERIMENTAL ENDPOINT: EC50 (µM)

Past entries and their recorded results:
{"columns": ["MOL SMILES", "EC50 (µM)"],
 "data": [
  ["O=C1N(c2c(F)cc(C#Cc3ccccc3)cc2F)c2ncc(-c3cccnc3)n2C12CC2", 0.178],
  ["Cn1cc(-c2cnc3n2C2(CC2)C(=O)N3c2c(F)cc(C#Cc3ccccc3)cc2F)cn1", 0.139]
]}

(a) O=C1N(c2c(F)cc(C#Cc3ccccc3)cc2F)c2ncc(C3(O)COC3)n2C12CC2
(b) O=C1N(c2c(F)cc(C#Cc3cccnc3)cc2F)c2ncc(-c3cc[nH]n3)n2C12CC2
IN: I'm curious, which of these has a smaller EC50 number: a or b ? Answer by stating the label of the chosen item.
OUT: b

###

biological target: human mGlu4 receptor (Homo sapiens); construct: expressed in transfected cells; host or cells: HEK-293 (monoclonal, stably transfected); test: Ca2+ mobilization in vitro assay on recombinant human mGlu4 expressed in HEK293 cells; assay type: cell-based; settings: HEK-293 cells stably expressing human mGlu4; L-AP4 added at EC20; Fluo-4 fluorescence; read-out: EC50 (uM) mGlu4 PAM
EXPERIMENTAL ENDPOINT: EC50 (µM)

Past entries and their recorded results:
{"columns": ["COMPOUND", "SUBJECT OF TEST", "UOM", "EC50"],
 "data": [
  ["O=C(Nc1cc(F)c(N2C(=O)C3(CC3)n3c(C4(O)COC4)cnc32)c(F)c1)c1ccccn1", "human mGlu4 receptor (Homo sapiens)", "µM", 0.363],
  ["CC1C(=O)N(c2c(F)cc(C#Cc3ccccc3)cc2F)c2nccn21 (single isomer, unassigned; enantiomer 2) [Example 4]", "human mGlu4 receptor (Homo sapiens)", "µM", 0.758],
  ["O=C1N(c2c(F)cc(-n3cc(C(F)(F)F)cn3)cc2F)c2ncc(-c3ccncn3)n2C12CC2", "human mGlu4 receptor (Homo sapiens)", "µM", 0.755],
  ["CC(C)(C)c1cnn(-c2cc(F)c(N3C(=O)C4(CC4)n4c(C5(O)COC5)cnc43)c(F)c2)c1", "human mGlu4 receptor (Homo sapiens)", "µM", 0.905]
]}

(1) CC(O)c1cnc2n1C1(CC1)C(=O)N2c1c(F)cc(C#Cc2ccccc2)cc1F (centres unmarked)
(2) Cn1ccc(-c2cnc3n2C2(CC2)C(=O)N3c2c(F)cc(C#Cc3ccccc3)cc2F)n1
IN: I'm curious, which of these has a smaller EC50 number: 1 or 2 ? Answer by stating the label of the chosen item.
OUT: 2
(2: 0.104 µM, 1: 0.824 µM)

###

molecular target: human mGlu4 receptor (Homo sapiens, UniProt Q14833); construct: expressed in transfected cells; host or cells: HEK-293 (monoclonal, stably transfected); test: Ca2+ mobilization in vitro assay on recombinant human mGlu4 expressed in HEK293 cells; format: cell-based; settings: HEK-293 cells stably expressing human mGlu4; L-AP4 added at EC20; Fluo-4 fluorescence; read-out: EC50 (uM) mGlu4 PAM
EXPERIMENTAL ENDPOINT: EC50 (µM)

{"columns": ["COMPOUND", "UOM", "OBSERVED VALUE"],
 "data": [
  ["CC1(C)C(=O)N(c2c(F)cc(C#Cc3ccccc3)cc2F)c2ncc(I)n21", "µM", 0.418]
]}

(A) Cn1nccc1-c1cnc2n1C1(CC1)C(=O)N2c1c(F)cc(C#Cc2cccnc2)cc1F
(B) CC(C)(C)c1cnn(-c2cc(F)c(N3C(=O)C4(CC4)n4c(-c5ccccn5)cnc43)c(F)c2)c1
(C) O=C1N(c2c(F)cc(C#Cc3ccccc3)cc2F)c2nccn2C12CC2
IN: // ascending sort on recorded EC50 Return value: ordered labels per request.
OUT: C, B, A
(C: 0.178 µM, B: 0.426 µM, A: 0.673 µM)

(P) O=C1CCN1c1cnc2n1C1(CC1)C(=O)N2c1c(F)cc(C#Cc2cccnc2)cc1F
(Q) CC(C)(C)c1cnn(-c2cc(F)c(N3C(=O)C4(CC4)n4c(-c5ccncn5)cnc43)c(F)c2)c1
IN: Which record would sort first by descending EC50, P or Q ? Answer by stating the label of the chosen item.
OUT: P
(P: 0.808 µM, Q: 0.232 µM)

(A) CC(O)c1cnc2n1C1(CC1)C(=O)N2c1c(F)cc(-n2cc(C(C)(C)C)cn2)cc1F (stereo not shown)
(B) O=C1N(c2c(F)cc(C#Cc3ccccc3)cc2F)c2ncc(-c3cn[nH]c3)n2C12CC2
(C) CC(F)(F)c1ccc(-c2cc(F)c(N3C(=O)C4(CC4)n4ccnc43)c(F)c2)cc1
(D) O=C1N(c2c(F)cc(C#Cc3cccnc3)cc2F)c2ncc(-c3cccnc3)n2C12CC2
IN: // ascending sort on recorded EC50 Return value: ordered labels per request.
OUT: B, C, D, A
(B: 0.238 µM, C: 0.383 µM, D: 0.566 µM, A: 0.842 µM)

(A) O=C1N(c2c(F)cc(C#Cc3cccnc3)cc2F)c2ncc(-c3ccncn3)n2C12CC2
(B) Cn1cnc(-c2cnc3n2C2(CC2)C(=O)N3c2c(F)cc(C#Cc3cccnc3)cc2F)c1
IN: I'm curious, which of these has a smaller EC50 number: A or B ? Answer by stating the label of the chosen item.
OUT: A
(A: 0.237 µM, B: 0.442 µM)

(a) Cn1cc(-c2cnc3n2C(C)(C)C(=O)N3c2c(F)cc(C#Cc3ccccc3)cc2Cl)cn1
(b) CC1(C)C(=O)N(c2c(F)cc(C#Cc3ccccc3)cc2F)c2nccn21
IN: Which record would sort first by descending EC50, a or b ? Answer by stating the label of the chosen item.
OUT: b
(b: 0.468 µM, a: 0.195 µM)

Attribution: patent US11345708B2
